Molecular target: T1, monkey C5-mmh (monkey, UniProt P01031 19-1676 (human entry), limits assumed)
T1 construct: Expressed with a C-terminal myc-myc-hexahistidine tag
T1 chain: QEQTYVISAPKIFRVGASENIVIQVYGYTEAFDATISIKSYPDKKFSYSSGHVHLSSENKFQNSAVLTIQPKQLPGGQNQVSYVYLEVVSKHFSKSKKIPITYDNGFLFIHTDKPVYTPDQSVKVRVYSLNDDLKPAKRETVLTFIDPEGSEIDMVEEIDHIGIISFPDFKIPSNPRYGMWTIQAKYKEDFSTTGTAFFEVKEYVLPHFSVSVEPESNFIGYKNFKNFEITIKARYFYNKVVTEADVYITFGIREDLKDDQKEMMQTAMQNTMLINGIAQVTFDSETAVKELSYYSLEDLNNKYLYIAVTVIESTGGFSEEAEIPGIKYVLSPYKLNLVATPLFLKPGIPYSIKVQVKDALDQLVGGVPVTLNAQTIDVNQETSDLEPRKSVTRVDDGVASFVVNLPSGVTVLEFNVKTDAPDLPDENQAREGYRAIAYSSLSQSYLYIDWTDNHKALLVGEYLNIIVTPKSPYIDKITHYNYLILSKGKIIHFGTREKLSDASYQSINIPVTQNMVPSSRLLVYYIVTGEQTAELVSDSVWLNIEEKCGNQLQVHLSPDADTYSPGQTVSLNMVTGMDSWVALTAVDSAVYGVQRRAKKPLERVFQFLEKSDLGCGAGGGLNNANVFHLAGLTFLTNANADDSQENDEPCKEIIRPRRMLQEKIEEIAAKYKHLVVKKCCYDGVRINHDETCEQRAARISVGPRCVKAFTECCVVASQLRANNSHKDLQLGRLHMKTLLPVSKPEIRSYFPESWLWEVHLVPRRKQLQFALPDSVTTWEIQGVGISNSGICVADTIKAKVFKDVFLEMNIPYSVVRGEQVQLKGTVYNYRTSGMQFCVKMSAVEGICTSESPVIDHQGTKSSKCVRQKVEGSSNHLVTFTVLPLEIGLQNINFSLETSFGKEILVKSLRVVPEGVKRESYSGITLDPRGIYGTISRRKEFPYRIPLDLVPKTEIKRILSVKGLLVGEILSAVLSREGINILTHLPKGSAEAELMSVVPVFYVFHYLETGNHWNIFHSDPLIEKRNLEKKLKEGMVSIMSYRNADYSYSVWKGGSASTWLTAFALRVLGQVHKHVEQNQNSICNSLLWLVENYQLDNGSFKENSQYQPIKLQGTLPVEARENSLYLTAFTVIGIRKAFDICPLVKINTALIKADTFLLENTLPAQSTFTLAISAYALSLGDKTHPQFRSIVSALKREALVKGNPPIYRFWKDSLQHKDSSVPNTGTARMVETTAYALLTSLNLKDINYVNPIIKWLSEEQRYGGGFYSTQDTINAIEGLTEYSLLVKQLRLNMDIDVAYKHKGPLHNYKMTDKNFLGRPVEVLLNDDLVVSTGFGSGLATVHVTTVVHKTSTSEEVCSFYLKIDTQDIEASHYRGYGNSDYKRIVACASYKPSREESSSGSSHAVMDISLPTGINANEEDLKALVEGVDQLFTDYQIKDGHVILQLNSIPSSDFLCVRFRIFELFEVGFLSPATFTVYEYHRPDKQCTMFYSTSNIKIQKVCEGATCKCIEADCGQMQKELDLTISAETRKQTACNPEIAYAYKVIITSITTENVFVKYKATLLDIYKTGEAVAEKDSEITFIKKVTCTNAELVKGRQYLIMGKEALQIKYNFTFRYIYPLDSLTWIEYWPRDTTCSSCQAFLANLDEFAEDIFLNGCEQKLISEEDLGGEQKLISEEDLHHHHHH
Test: SPR, mAb captured by anti-hFc, 25C
Metric name: pKd
Reminder that pKd is minus the log10 of a molar concentration.

1. H4H12169P (antibody, human IgG4, V domains shown) VH: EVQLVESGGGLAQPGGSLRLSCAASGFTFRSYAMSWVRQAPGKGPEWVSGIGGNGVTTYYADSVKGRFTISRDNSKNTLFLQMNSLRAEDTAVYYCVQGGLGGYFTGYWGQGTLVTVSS VL: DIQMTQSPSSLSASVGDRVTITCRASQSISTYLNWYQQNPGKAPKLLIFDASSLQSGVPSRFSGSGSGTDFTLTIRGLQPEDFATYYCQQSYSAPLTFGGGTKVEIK ... 7.56
2. H4H12166P2 (antibody, human IgG4, V domains shown, human IgG4 Fc with S108P hinge mutation) VH: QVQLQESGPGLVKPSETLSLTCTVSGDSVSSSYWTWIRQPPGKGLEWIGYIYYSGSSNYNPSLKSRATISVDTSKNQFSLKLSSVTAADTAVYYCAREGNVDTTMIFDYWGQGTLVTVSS VL: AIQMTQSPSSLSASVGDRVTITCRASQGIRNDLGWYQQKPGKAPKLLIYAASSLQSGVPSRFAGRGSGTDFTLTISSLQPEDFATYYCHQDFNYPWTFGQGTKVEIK ... 7.98

Query binder follows.
In plain terms, H4H12175P (antibody, human IgG4, V domains shown) VH: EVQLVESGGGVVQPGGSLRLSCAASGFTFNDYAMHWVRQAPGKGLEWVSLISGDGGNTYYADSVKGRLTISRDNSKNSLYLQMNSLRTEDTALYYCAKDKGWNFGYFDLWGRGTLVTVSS VL: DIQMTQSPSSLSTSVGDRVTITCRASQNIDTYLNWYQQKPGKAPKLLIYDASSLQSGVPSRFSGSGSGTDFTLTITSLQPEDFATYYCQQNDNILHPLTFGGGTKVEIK has a documented pKd of 7.59
